Source listed as patent US20070122830A1.

System: SKOV3 Ovarian Cancer Cell Line
Assay: MTT cytotoxicity assay, transfected SKOV3 cells plus chemotherapeutic drug
Format: cell-based, human
Settings: SKOV3 cells, prohibitin (siRNA) transfected; Table 10 experiment; read-out: EC50, Prohibitin
Experimental: For a typical siRNA transfection, 1 nmole of the annealed siRNA duplex was mixed with 1.4 ml of Opti-MEM reagent (Invitrogen). In another tube, […] of Oligofectamine reagent (Invitrogen, Carlsbad, Calif.) was mixed with 600 ml of Opti-MEM. […] RNA-transfected cells were seeded in triplicate into 96-well plates at 5×10^3 cells/well 48 hrs post-transfection. […] Cell viability was determined by measure of absorption at 570 nm in a Wallac multiwell plate reader (PerkinElmer, Inc., Boston, Mass.). […]
pEC50: −log10 of the molar value.
Output true (1) for pEC50 not less than 8; output false (0) otherwise.

In: Please check the record `S=P(N1CC1)(N1CC1)N1CC1` and state if its pEC50 is at or above 8.
Out: false (0)

In: Next: N.N.[Cl][Pt][Cl] [Cisplatinum]
Out: false (0)

In: Next: `CC(=O)O[C@H]1C(=O)[C@@]2(C)[C@H]([C@H](OC(=O)c3ccccc3)[C@]3(O)C[C@H](OC(=O)[C@H](O)[C@@H](NC(=O)c4ccccc4)c4ccccc4)C(C)=C1C3(C)C)[C@]1(OC(C)=O)CO[C@@H]1C[C@@H]2O`
Out: true (1)

In: Next: `N[C@@H](Cc1ccc(N(CCCl)CCCl)cc1)C(=O)O`
Out: false (0)

In: Next: COc1cc([C@@H]2c3cc4c(cc3[C@@H](O[C@@H]3O[C@@H]5CO[C@@H](C)O[C@H]5[C@H](O)[C@H]3O)[C@H]3COC(=O)[C@H]23)OCO4)cc(OC)c1O [Etoposide]
Out: false (0)

In: Next: `O=C1c2c(O)ccc(O)c2C(=O)c2c(NCCNCCO)ccc(NCCNCCO)c21`
Out: true (1)

In: Next: `CC[C@]1(O)C[C@H]2CN(CCc3c([nH]c4ccccc34)[C@@](C(=O)OC)(c3cc4c(cc3OC)N(C=O)[C@H]3[C@@](O)(C(=O)OC)[C@H](OC(C)=O)[C@]5(CC)C=CCN6CC[C@]43[C@@H]65)C2)C1`
Out: true (1)

* * *

system: MDA Breast Cancer Cell Line; experiment: MTT cytotoxicity assay, transfected MDA cells plus chemotherapeutic drug; format: cell-based, human; details: MDA cells, prohibitin (siRNA) transfected; Table 4 experiment; read-out: EC50, Prohibitin
Rule: measured EC50 below 20 µM gets y; anything equal to or greater than 20 µM gets n.

Completed entries (count: 5):
* CC[C@]1(O)C[C@H]2CN(CCc3c([nH]c4ccccc34)[C@@](C(=O)OC)(c3cc4c(cc3OC)N(C=O)[C@H]3[C@@](O)(C(=O)OC)[C@H](OC(C)=O)[C@]5(CC)C=CCN6CC[C@]43[C@@H]65)C2)C1 | y
* N.N.[Cl][Pt][Cl] [Cisplatinum] | n
* O=C1c2c(O)ccc(O)c2C(=O)c2c(NCCNCCO)ccc(NCCNCCO)c21 | y
* CC(=O)O[C@H]1C(=O)[C@@]2(C)[C@H]([C@H](OC(=O)c3ccccc3)[C@]3(O)C[C@H](OC(=O)[C@H](O)[C@@H](NC(=O)c4ccccc4)c4ccccc4)C(C)=C1C3(C)C)[C@]1(OC(C)=O)CO[C@@H]1C[C@@H]2O | y
* COc1cccc2c1C(=O)c1c(O)c3c(c(O)c1C2=O)C[C@@](O)(C(=O)CO)C[C@@H]3O[C@H]1C[C@H](N)[C@H](O)[C@H](C)O1 | y

Turning to the following molecule.
In: Would you kindly verify if EC50 of `N[C@@H](Cc1ccc(N(CCCl)CCCl)cc1)C(=O)O` is strictly less than 20 µM?
Out: n

* * *

test system: MDA Breast Cancer Cell Line; test: MTT cytotoxicity assay, transfected MDA cells plus chemotherapeutic drug; format: cell-based, human; details: MDA; FIGS. 13A-13H
Quantity: sensitivity to drug of prohibitin siRNA treated cells compared to mock controls

- COc1cccc2c1C(=O)c1c(O)c3c(c(O)c1C2=O)C[C@@](O)(C(=O)CO)C[C@@H]3O[C@H]1C[C@H](N)[C@H](O)[C@H](C)O1: increased sensitivity
- N.N.[Cl][Pt][Cl] [Cisplatinum]: increased sensitivity
